# System: allergic reactions induced by the antigen-antibody interaction
# protocol.summary: PCA test (Ovary), antiallergic activity on rats
# Assay type: in vivo
# reported.conditions: Rattus norvegicus, iv; rats
attribute.measured: ED50
Answer with the number, then the unit.

Query string: Using the record for Cc1cccc(NN=C2CCC(C)n3c2ncc(C(=O)O)c3=O)c1 (stereo not drawn) , report its ED50.
Result string: 0.42 µmol/kg

Query string: Same read-out for CCOc1ccc(NN=C2CCC(C)n3c2ncc(C(=O)O)c3=O)cc1 (racemic) ?
Result string: 0.87 µmol/kg

Query string: Same read-out for CC1CCC(=NNc2ccc(C(=O)O)cc2)c2ncc(C(=O)O)c(=O)n21 (stereo not drawn) ?
Result string: 7.6 µmol/kg

Query string: Same read-out for CC1CCC(=NNc2cccc([N+](=O)[O-])c2)c2ncc(C(=O)O)c(=O)n21 (stereo not drawn) ?
Result string: 0.52 µmol/kg

Query string: Same read-out for CC1CCC(=NNc2cccc(Cl)c2)c2ncc(C(=O)O)c(=O)n21 (stereo not drawn) ?
Result string: 0.61 µmol/kg

Query string: Same read-out for CC1CCC(=NNc2ccc(Br)cc2)c2ncc(C(=O)O)c(=O)n21 (stereo not drawn) ?
Result string: 0.82 µmol/kg
